These entries and their values trace back to patent US8575135B2.

Assign EC50 to each entry below.
- System: 1a Pi-Rluc replicon with Q30R in genotype 1a NS5A
- protocol_summary: microbe, parasite or virus in culture
- Assay type: cell-based, HCV
- study_conditions: Hepatitis C virus, read-out: 1a Q30R (nM)
Field format: number, assumed nM, no unit text.

Record for CCO[C@H]1C[C@@H](c2nc3ccc4cc5c(cc4c3[nH]2)OCc2cc(-c3cnc([C@@H]4CCCN4C(=O)[C@H](NC(=O)OC)c4ccccc4)[nH]3)ccc2-5)N(C(=O)[C@@H](NC(=O)OC)C(C)C)C1 [Example OR] under target or system 1a Pi-Rluc replicon with Q30R in genotype 1a NS5A: EC50 reported as 0.059

Record for COC[C@H]1C[C@@H](c2ncc(-c3ccc4c(c3)COc3cc5c(ccc6nc([C@@H]7CC[C@H](C)N7C(=O)[C@@H](NC(=O)OC)C(C)C)[nH]c65)cc3-4)[nH]2)N(C(=O)[C@@H](NC(=O)OC)[C@H](C)OC)C1 [Example QA] under target or system 1a Pi-Rluc replicon with Q30R in genotype 1a NS5A: EC50 reported as 0.045
